System: LXF-289
protocol: relative viability (nuclei count vs DMSO), 5 days (fraction); higher = more cells survive
conditions: first compound 0.4 µM
measure: relative viability

[[record]]
compound = "O=C(O)c1ccc(-c2c[nH]c3ncc(-c4ccccc4)cc23)cc1C1CCCC1 + Nc1ncn([C@H]2C[C@H](O)[C@@H](CO)O2)c(=O)n1 [Decitabine] (partner 2 µM)"
measure = "relative viability"
recordednumber = 0.361

[[record]]
compound = "O=C(O)c1ccc(-c2c[nH]c3ncc(-c4ccccc4)cc23)cc1C1CCCC1 + Cc1nc(Nc2ncc(C(=O)Nc3c(C)cccc3Cl)s2)cc(N2CCN(CCO)CC2)n1 [Dasatinib] (partner 0.075 µM)"
measure = "relative viability"
recordednumber = 0.181

[[record]]
compound = "O=C(O)c1ccc(-c2c[nH]c3ncc(-c4ccccc4)cc23)cc1C1CCCC1 + CC(=O)Nc1cccc(-n2c(=O)n(C3CC3)c(=O)c3c(Nc4ccc(I)cc4F)n(C)c(=O)c(C)c32)c1 [Trametinib] (partner 0.02 µM)"
measure = "relative viability"
recordednumber = 0.666

[[record]]
compound = "O=C(O)c1ccc(-c2c[nH]c3ncc(-c4ccccc4)cc23)cc1C1CCCC1 + Nc1nc2[nH]cc(CCc3ccc(C(=O)N[C@@H](CCC(=O)O)C(=O)O)cc3)c2c(=O)[nH]1 [Pemetrexed] (partner 0.2 µM)"
measure = "relative viability"
recordednumber = 0.786

[[record]]
compound = "O=C(O)c1ccc(-c2c[nH]c3ncc(-c4ccccc4)cc23)cc1C1CCCC1 + CC(C)C[C@H](NC(=O)[C@H](Cc1ccccc1)NC(=O)c1cnccn1)B(O)O [Bortezomib] (partner 0.002 µM)"
measure = "relative viability"
recordednumber = 0.8

[[record]]
compound = "O=C(O)c1ccc(-c2c[nH]c3ncc(-c4ccccc4)cc23)cc1C1CCCC1 + Cc1nc(NC(=O)N2CCC[C@H]2C(N)=O)sc1-c1ccnc(C(C)(C)C(F)(F)F)c1 [Alpelisib] (partner 2 µM)"
measure = "relative viability"
recordednumber = 0.756

[[record]]
compound = "O=C(O)c1ccc(-c2c[nH]c3ncc(-c4ccccc4)cc23)cc1C1CCCC1 + CCNC(=O)c1noc(-c2cc(C(C)C)c(O)cc2O)c1-c1ccc(CN2CCOCC2)cc1 [Luminespib] (partner 0.01 µM)"
measure = "relative viability"
recordednumber = 0.484


---

System: LCLC-97TM1
protocol: relative viability (nuclei count vs DMSO), 5 days (fraction); higher = more cells survive
conditions: first compound 2.53 µM
// boundary case: relative viability equal to 0.3 maps to n; strictly smaller maps to y

[[record]]
compound = "Oc1nc(-c2ccc(C(F)(F)F)cc2)nc2c1CSCC2 [XAV939] + Cc1nc(Nc2ncc(C(=O)Nc3c(C)cccc3Cl)s2)cc(N2CCN(CCO)CC2)n1 [Dasatinib] (partner 0.075 µM)"
qualitativelabel = "n"

[[record]]
compound = "C=C1C(=O)O[C@@H](CCCCCCCC)[C@@H]1C(=O)O [C-75] + CC(C)C[C@H](NC(=O)[C@H](Cc1ccccc1)NC(=O)c1cnccn1)B(O)O [Bortezomib] (partner 0.002 µM)"
qualitativelabel = "n"

[[record]]
compound = "C=C1C(=O)O[C@@H](CCCCCCCC)[C@@H]1C(=O)O [C-75] + C[C@]1(O)C[C@@H](c2nc(-c3ccc4ccc(-c5ccccc5)nc4c3)c3c(N)nccn32)C1 [Linsitinib] (partner 1 µM)"
qualitativelabel = "y"

[[record]]
compound = "C=C1C(=O)O[C@@H](CCCCCCCC)[C@@H]1C(=O)O [C-75] + Cc1nc(NC(=O)N2CCC[C@H]2C(N)=O)sc1-c1ccnc(C(C)(C)C(F)(F)F)c1 [Alpelisib] (partner 2 µM)"
qualitativelabel = "y"

[[record]]
compound = "C=C1C(=O)O[C@@H](CCCCCCCC)[C@@H]1C(=O)O [C-75] + Nc1ncn([C@H]2C[C@H](O)[C@@H](CO)O2)c(=O)n1 [Decitabine] (partner 2 µM)"
qualitativelabel = "y"

[[record]]
compound = "C=C1C(=O)O[C@@H](CCCCCCCC)[C@@H]1C(=O)O [C-75] + O=C(c1cc(Cc2n[nH]c(=O)c3ccccc23)ccc1F)N1CCN(C(=O)C2CC2)CC1 [Olaparib] (partner 8 µM)"
qualitativelabel = "n"

[[record]]
compound = "Oc1nc(-c2ccc(C(F)(F)F)cc2)nc2c1CSCC2 [XAV939] + CS(=O)(=O)CCNCc1ccc(-c2ccc3ncnc(Nc4ccc(OCc5cccc(F)c5)c(Cl)c4)c3c2)o1 [Lapatinib] (partner 2 µM)"
qualitativelabel = "n"


---

Test system: NCI-H2023
protocol: relative viability (nuclei count vs DMSO), 5 days (fraction); higher = more cells survive
conditions: first compound 1.265 µM
Listing: relative viability of selected molecules
measure: relative viability

[[record]]
molecule = "O=C(O)c1ccc(-c2c[nH]c3ncc(-c4ccccc4)cc23)cc1C1CCCC1 + CCNC(=O)c1noc(-c2cc(C(C)C)c(O)cc2O)c1-c1ccc(CN2CCOCC2)cc1 [Luminespib] (partner 0.01 µM)"
measure = "relative viability"
recordednumber = 0.34

[[record]]
molecule = "O=C(O)c1ccc(-c2c[nH]c3ncc(-c4ccccc4)cc23)cc1C1CCCC1 + Nc1nc2[nH]cc(CCc3ccc(C(=O)N[C@@H](CCC(=O)O)C(=O)O)cc3)c2c(=O)[nH]1 [Pemetrexed] (partner 0.2 µM)"
measure = "relative viability"
recordednumber = 0.237

[[record]]
molecule = "O=C(O)c1ccc(-c2c[nH]c3ncc(-c4ccccc4)cc23)cc1C1CCCC1 + CS(=O)(=O)N1CCN(Cc2cc3nc(-c4cccc5[nH]ncc45)nc(N4CCOCC4)c3s2)CC1 [Pictilisib] (partner 1 µM)"
measure = "relative viability"
recordednumber = 0.224

[[record]]
molecule = "O=C(O)c1ccc(-c2c[nH]c3ncc(-c4ccccc4)cc23)cc1C1CCCC1 + CC1(C)CCC(c2ccc(Cl)cc2)=C(CN2CCN(c3ccc(C(=O)NS(=O)(=O)c4ccc(N[C@H](CCN5CCOCC5)CSc5ccccc5)c(S(=O)(=O)C(F)(F)F)c4)cc3)CC2)C1 [Navitoclax] (partner 0.5 µM)"
measure = "relative viability"
recordednumber = 0.904

[[record]]
molecule = "O=C(O)c1ccc(-c2c[nH]c3ncc(-c4ccccc4)cc23)cc1C1CCCC1 + Cc1cc(Nc2cc(N3CCN(C)CC3)nc(Sc3ccc(NC(=O)C4CC4)cc3)n2)n[nH]1 [Tozasertib] (partner 0.1 µM)"
measure = "relative viability"
recordednumber = 0.242


---

System: ChaGo-K-1
protocol: relative viability (nuclei count vs DMSO), 5 days (fraction); higher = more cells survive
conditions: first compound 0.04 µM
Listing: relative viability of selected molecules
measure: relative viability

[[record]]
molecule = "O=C(O)c1ccc(-c2c[nH]c3ncc(-c4ccccc4)cc23)cc1C1CCCC1 + CC1(C)CCC(c2ccc(Cl)cc2)=C(CN2CCN(c3ccc(C(=O)NS(=O)(=O)c4ccc(N[C@H](CCN5CCOCC5)CSc5ccccc5)c(S(=O)(=O)C(F)(F)F)c4)cc3)CC2)C1 [Navitoclax] (partner 0.5 µM)"
recordednumber = 1.16

[[record]]
molecule = "O=C(O)c1ccc(-c2c[nH]c3ncc(-c4ccccc4)cc23)cc1C1CCCC1 + NC(=O)Nc1cc(-c2cccc(F)c2)sc1C(=O)N[C@H]1CCCNC1 [AZD7762] (partner 0.2 µM)"
recordednumber = 0.845

[[record]]
molecule = "O=C(O)c1ccc(-c2c[nH]c3ncc(-c4ccccc4)cc23)cc1C1CCCC1 + CCNC(=O)c1noc(-c2cc(C(C)C)c(O)cc2O)c1-c1ccc(CN2CCOCC2)cc1 [Luminespib] (partner 0.01 µM)"
recordednumber = 0.712

[[record]]
molecule = "O=C(O)c1ccc(-c2c[nH]c3ncc(-c4ccccc4)cc23)cc1C1CCCC1 + CC(C)C[C@H](NC(=O)[C@H](Cc1ccccc1)NC(=O)c1cnccn1)B(O)O [Bortezomib] (partner 0.002 µM)"
recordednumber = 1.08

[[record]]
molecule = "O=C(O)c1ccc(-c2c[nH]c3ncc(-c4ccccc4)cc23)cc1C1CCCC1 + CC(=O)c1c(C)c2cnc(Nc3ccc(N4CCNCC4)cn3)nc2n(C2CCCC2)c1=O [Palbociclib] (partner 0.5 µM)"
recordednumber = 0.958

[[record]]
molecule = "O=C(O)c1ccc(-c2c[nH]c3ncc(-c4ccccc4)cc23)cc1C1CCCC1 + N=C(N)NC(=N)NCCc1ccccc1 [Phenformin] (partner 250 µM)"
recordednumber = 0.477

[[record]]
molecule = "O=C(O)c1ccc(-c2c[nH]c3ncc(-c4ccccc4)cc23)cc1C1CCCC1 + Cc1cc(Nc2cc(N3CCN(C)CC3)nc(Sc3ccc(NC(=O)C4CC4)cc3)n2)n[nH]1 [Tozasertib] (partner 0.1 µM)"
recordednumber = 0.213


---

Tested on: LOU-NH91
protocol: relative viability (nuclei count vs DMSO), 5 days (fraction); higher = more cells survive
conditions: first compound 0.01 µM
measure: relative viability

[[record]]
compound = "NC(=O)Nc1cc(-c2cccc(F)c2)sc1C(=O)N[C@H]1CCCNC1 [AZD7762] + CS(=O)(=O)N1CCN(Cc2cc3nc(-c4cccc5[nH]ncc45)nc(N4CCOCC4)c3s2)CC1 [Pictilisib] (partner 1 µM)"
measure = "relative viability"
recordednumber = 0.546

[[record]]
compound = "NC(=O)Nc1cc(-c2cccc(F)c2)sc1C(=O)N[C@H]1CCCNC1 [AZD7762] + COc1cc2c(Oc3ccc(NC(=O)C4(C(=O)Nc5ccc(F)cc5)CC4)cc3F)ccnc2cc1OCCCN1CCOCC1 [Foretinib] (partner 0.25 µM)"
measure = "relative viability"
recordednumber = 0.925

[[record]]
compound = "NC(=O)Nc1cc(-c2cccc(F)c2)sc1C(=O)N[C@H]1CCCNC1 [AZD7762] + COc1cccc2cc(-c3nc([C@H]4CC[C@H](C(=O)O)CC4)n4ncnc(N)c34)[nH]c12 [OSI-027] (partner 0.5 µM)"
measure = "relative viability"
recordednumber = 0.735

[[record]]
compound = "NC(=O)Nc1cc(-c2cccc(F)c2)sc1C(=O)N[C@H]1CCCNC1 [AZD7762] + CS(=O)(=O)CCNCc1ccc(-c2ccc3ncnc(Nc4ccc(OCc5cccc(F)c5)c(Cl)c4)c3c2)o1 [Lapatinib] (partner 2 µM)"
measure = "relative viability"
recordednumber = 0.792

